Where do these numbers come from? They come from PubChem BioAssay AID1963431.

# System: Rh18 complex spheroid viability, percent test/control
# METHOD_SUMMARY: Anticancer human tumor Rh18 cell line growth inhibition [Asc];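 further: spheroids exposed to compound for 7 days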;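 on viability, T/C: 100% = DMSO vehicle control wells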
# TEST_CONDITIONS: second compound 3.16 µM; first compound 0.1 µM; stronger effect = lower value
METRIC_NAME: viability, T/C (%)

>>> measurement("O=C(c1ccc(F)c(F)c1Nc1ccc(I)cc1F)N1CC(O)([C@@H]2CCCCN2)C1 + Cc1c(S(C)(=O)=O)c(-c2cc(F)cc(N3CCN(c4ccc(NS(=O)(=O)c5ccc(NC(CCN6CCC(C(=O)OCCCP(=O)(O)O)CC6)CSc6ccccc6)c(S(=O)(=O)C(F)(F)F)c5)cc4)CC3)c2)c(-c2ccc(Cl)cc2)n1C(C)C")
5.28
>>> measurement("COc1c(OCCCN2CCOCC2)ccc2c3n(c(=NC(=O)c4cnc(N)nc4)nc12)CCN3 + Cc1c(S(C)(=O)=O)c(-c2cc(F)cc(N3CCN(c4ccc(NS(=O)(=O)c5ccc(NC(CCN6CCC(C(=O)OCCCP(=O)(O)O)CC6)CSc6ccccc6)c(S(=O)(=O)C(F)(F)F)c5)cc4)CC3)c2)c(-c2ccc(Cl)cc2)n1C(C)C")
0.45
>>> measurement("NC1CCC(NC2CC2c2ccccc2)CC1 (centres undefined) + Cc1c(S(C)(=O)=O)c(-c2cc(F)cc(N3CCN(c4ccc(NS(=O)(=O)c5ccc(NC(CCN6CCC(C(=O)OCCCP(=O)(O)O)CC6)CSc6ccccc6)c(S(=O)(=O)C(F)(F)F)c5)cc4)CC3)c2)c(-c2ccc(Cl)cc2)n1C(C)C")
4.43
>>> measurement("C=C(F)C(=O)N1CCN(c2nc(OCC3CCCN3C)nc3c2CCN(c2cccc4cccc(Cl)c24)C3)CC1CC#N (centres undefined) + Cc1c(S(C)(=O)=O)c(-c2cc(F)cc(N3CCN(c4ccc(NS(=O)(=O)c5ccc(NC(CCN6CCC(C(=O)OCCCP(=O)(O)O)CC6)CSc6ccccc6)c(S(=O)(=O)C(F)(F)F)c5)cc4)CC3)c2)c(-c2ccc(Cl)cc2)n1C(C)C")
7.03

====

# Lookup of reported viability, T/C keyed by entry
# Tested on: Rh18 complex spheroid viability, percent test/control
# METHOD_SUMMARY: Anticancer human tumor Rh18 cell line growth inhibition [Asc];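 further: spheroids exposed to compound for 7 days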;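 on viability, T/C: 100% = DMSO vehicle control wells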
# TEST_CONDITIONS: second compound 3 µM; first compound 0.00316 µM; stronger effect = lower value
METRIC_NAME: viability, T/C (%)

>>> measurement("NC1CCC(NC2CC2c2ccccc2)CC1 (stereo not drawn) + CCN1C(C(=O)NC23CCC(C(=O)O)(CC2)CC3)C(c2cccc(Cl)c2F)C2(C(=O)Nc3cc(Cl)ccc32)C12CCCCC2")
11.8
>>> measurement("COc1c(OCCCN2CCOCC2)ccc2c3n(c(=NC(=O)c4cnc(N)nc4)nc12)CCN3 + CCN1C(C(=O)NC23CCC(C(=O)O)(CC2)CC3)C(c2cccc(Cl)c2F)C2(C(=O)Nc3cc(Cl)ccc32)C12CCCCC2")
10.2
>>> measurement("CNC(C)C(=O)NC1CN(S(=O)(=O)c2cccc(S(=O)(=O)N3CCC4CCC(C(=O)NC(c5ccccc5)c5ccccc5)N4C(=O)C(NC(=O)C(C)NC)C3)c2)CCC2CCC(C(=O)NC(c3ccccc3)c3ccccc3)N2C1=O (stereo not drawn) + CCN1C(C(=O)NC23CCC(C(=O)O)(CC2)CC3)C(c2cccc(Cl)c2F)C2(C(=O)Nc3cc(Cl)ccc32)C12CCCCC2")
10.8

====

# Lookup of reported pIC50 keyed by entry
# System: Rh18 complex spheroid viability, percent test/control
# METHOD_SUMMARY: Anticancer human tumor Rh18 cell line growth inhibition [Asc];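 further: spheroids exposed to compound for 7 days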
# TEST_CONDITIONS: curve of first compound; second compound 0.1 µM
pIC50: −log10 of the molar value.
METRIC_NAME: pIC50

>>> measurement("Cc1nc(N2CCC3(CC2)COC(C)C3N)c(CO)nc1Sc1ccnc(N)c1Cl (stereo not drawn) + Cc1c(S(C)(=O)=O)c(-c2cc(F)cc(N3CCN(c4ccc(NS(=O)(=O)c5ccc(NC(CCN6CCC(C(=O)OCCCP(=O)(O)O)CC6)CSc6ccccc6)c(S(=O)(=O)C(F)(F)F)c5)cc4)CC3)c2)c(-c2ccc(Cl)cc2)n1C(C)C")
"> 8.02"
>>> measurement("C=C(F)C(=O)N1CCN(c2nc(OCC3CCCN3C)nc3c2CCN(c2cccc4cccc(Cl)c24)C3)CC1CC#N (stereo not drawn) + Cc1c(S(C)(=O)=O)c(-c2cc(F)cc(N3CCN(c4ccc(NS(=O)(=O)c5ccc(NC(CCN6CCC(C(=O)OCCCP(=O)(O)O)CC6)CSc6ccccc6)c(S(=O)(=O)C(F)(F)F)c5)cc4)CC3)c2)c(-c2ccc(Cl)cc2)n1C(C)C")
"> 7.50"
>>> measurement("CCN1CCN(Cc2ccc(Nc3ncc(F)c(-c4cc(F)c5nc(C)n(C(C)C)c5c4)n3)nc2)CC1 + Cc1c(S(C)(=O)=O)c(-c2cc(F)cc(N3CCN(c4ccc(NS(=O)(=O)c5ccc(NC(CCN6CCC(C(=O)OCCCP(=O)(O)O)CC6)CSc6ccccc6)c(S(=O)(=O)C(F)(F)F)c5)cc4)CC3)c2)c(-c2ccc(Cl)cc2)n1C(C)C")
"> 8.50"

====

# System: Rh18 complex spheroid viability, percent test/control
# METHOD_SUMMARY: Anticancer human tumor Rh18 cell line growth inhibition [Asc];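 further: spheroids exposed to compound for 7 days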;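 on viability, T/C: 100% = DMSO vehicle control wells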
# TEST_CONDITIONS: second compound 1 µM; first compound 3.16 µM; stronger effect = lower value
Cut-off 9% on viability, T/C: below means 1, at or above means 0.

>>> label_class("C=C(F)C(=O)N1CCN(c2nc(OCC3CCCN3C)nc3c2CCN(c2cccc4cccc(Cl)c24)C3)CC1CC#N (stereo not given) + CNC(C)C(=O)NC1CN(S(=O)(=O)c2cccc(S(=O)(=O)N3CCC4CCC(C(=O)NC(c5ccccc5)c5ccccc5)N4C(=O)C(NC(=O)C(C)NC)C3)c2)CCC2CCC(C(=O)NC(c3ccccc3)c3ccccc3)N2C1=O")
1
>>> label_class("O=C(c1cc(Cc2n[nH]c(=O)c3ccccc23)ccc1F)N1CCN(C(=O)C2CC2)CC1 + Cc1c(S(C)(=O)=O)c(-c2cc(F)cc(N3CCN(c4ccc(NS(=O)(=O)c5ccc(NC(CCN6CCC(C(=O)OCCCP(=O)(O)O)CC6)CSc6ccccc6)c(S(=O)(=O)C(F)(F)F)c5)cc4)CC3)c2)c(-c2ccc(Cl)cc2)n1C(C)C")
0
>>> label_class("C=CC(=O)N1CCN(c2nc(=O)n(-c3c(C)ccnc3C(C)C)c3nc(-c4c(O)cccc4F)c(F)cc23)C(C)C1 (stereo not given) + Cc1c(S(C)(=O)=O)c(-c2cc(F)cc(N3CCN(c4ccc(NS(=O)(=O)c5ccc(NC(CCN6CCC(C(=O)OCCCP(=O)(O)O)CC6)CSc6ccccc6)c(S(=O)(=O)C(F)(F)F)c5)cc4)CC3)c2)c(-c2ccc(Cl)cc2)n1C(C)C")
0
>>> label_class("O=C(c1cc(Cc2n[nH]c(=O)c3ccccc23)ccc1F)N1CCN(C(=O)C2CC2)CC1 + CNC(C)C(=O)NC1CN(S(=O)(=O)c2cccc(S(=O)(=O)N3CCC4CCC(C(=O)NC(c5ccccc5)c5ccccc5)N4C(=O)C(NC(=O)C(C)NC)C3)c2)CCC2CCC(C(=O)NC(c3ccccc3)c3ccccc3)N2C1=O")
0

====

# Test system: Rh18 complex spheroid viability, percent test/control
# METHOD_SUMMARY: Anticancer human tumor Rh18 cell line growth inhibition [Asc]; active = viability on the fitted dose curve at most 10% of control; inactive = the rest;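 further: spheroids exposed to compound for 7 days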
# TEST_CONDITIONS: second compound 0.1 µM; first compound 3.16 µM
Classes used: active, inactive

>>> label_class("C=C(F)C(=O)N1CCN(c2nc(OCC3CCCN3C)nc3c2CCN(c2cccc4cccc(Cl)c24)C3)CC1CC#N (stereo not drawn) + CNC(C)C(=O)NC1CN(S(=O)(=O)c2cccc(S(=O)(=O)N3CCC4CCC(C(=O)NC(c5ccccc5)c5ccccc5)N4C(=O)C(NC(=O)C(C)NC)C3)c2)CCC2CCC(C(=O)NC(c3ccccc3)c3ccccc3)N2C1=O")
"inactive"
>>> label_class("C=CC(=O)N1CCN(c2nc(=O)n(-c3c(C)ccnc3C(C)C)c3nc(-c4c(O)cccc4F)c(F)cc23)C(C)C1 (stereo not drawn) + Cc1c(S(C)(=O)=O)c(-c2cc(F)cc(N3CCN(c4ccc(NS(=O)(=O)c5ccc(NC(CCN6CCC(C(=O)OCCCP(=O)(O)O)CC6)CSc6ccccc6)c(S(=O)(=O)C(F)(F)F)c5)cc4)CC3)c2)c(-c2ccc(Cl)cc2)n1C(C)C")
"inactive"
>>> label_class("C=C(F)C(=O)N1CCN(c2nc(OCC3CCCN3C)nc3c2CCN(c2cccc4cccc(Cl)c24)C3)CC1CC#N (stereo not drawn) + Cc1c(S(C)(=O)=O)c(-c2cc(F)cc(N3CCN(c4ccc(NS(=O)(=O)c5ccc(NC(CCN6CCC(C(=O)OCCCP(=O)(O)O)CC6)CSc6ccccc6)c(S(=O)(=O)C(F)(F)F)c5)cc4)CC3)c2)c(-c2ccc(Cl)cc2)n1C(C)C")
"active"
